Biological target: human GLP-1R receptor (Homo sapiens, UniProt P43220)
Sequence (P43220 24-463): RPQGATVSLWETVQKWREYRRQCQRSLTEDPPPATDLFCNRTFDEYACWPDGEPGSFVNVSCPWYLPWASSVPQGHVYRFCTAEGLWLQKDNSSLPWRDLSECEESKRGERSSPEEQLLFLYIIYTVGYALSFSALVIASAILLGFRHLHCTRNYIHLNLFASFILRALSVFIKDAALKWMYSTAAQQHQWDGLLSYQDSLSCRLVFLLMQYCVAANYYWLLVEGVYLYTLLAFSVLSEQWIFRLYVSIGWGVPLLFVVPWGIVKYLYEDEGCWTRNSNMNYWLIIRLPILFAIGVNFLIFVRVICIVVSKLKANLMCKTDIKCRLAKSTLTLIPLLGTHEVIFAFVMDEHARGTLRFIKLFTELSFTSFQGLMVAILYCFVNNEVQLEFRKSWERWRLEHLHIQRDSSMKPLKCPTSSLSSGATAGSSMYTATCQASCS
Test: GLP-1R low expression cell assay (cAMP TR-FRET, CHO-K1_hGLP-1Rlow_clone10 cells)
Conditions: cAMP TR-FRET, 30 min at 25° C.
parameter: EC50

Query string: Please look up its EC50: Cn1c(CN2CCC(c3cccc(OCc4ccc(Cl)cc4F)n3)CC2)nc2c(O)cc(C(=O)O)cc21 [Compound 307]
Result string: 10 to 100 nM

Query string: Please look up its EC50: COc1cc(C(=O)O)cc2c1nc(CN1CCC(c3cccc4c3OC[C@@H](c3ccc(Cl)cc3F)O4)CC1)n2C [Compound 271]
Result string: 100 to 1000 nM

Query string: Please look up its EC50: [2H]C([2H])([2H])Oc1cc(C(=O)O)cc2c1nc(CN1CCC(c3cccc(OCc4ccc(C#N)cc4F)n3)CC1)n2C [Compound 349]
Result string: < 10 nM
